Field: MIC. Provide a value for each of the molecules that follow.
System: Staphylococcus aureus
experiment.notes: Antimicrobial activity against methicillin-resistant Staphylococcus aureus ATCC 33592 after 18 to 24 hrs by alamar blue assay
Format: functional
condition.set: Staphylococcus aureus, ATCC 33592; read-out: MIC
Answers are plain numbers, in µg/mL.

These solved cases illustrate the format of a correct answer.
> print(dat)
                                   molecule            test.target  measured.attribute  readout.number
1  Cc1ccc(C(C)C)cc1Oc1ccc(Cl)cc1NC(=O)c1cc(Cl)cc(Br)c1O  Staphylococcus aureus                 MIC             0.5
2  O=C1c2cc([N+](=O)[O-])cc3cc([N+](=O)[O-])cc(c23)C(=O)N1c1ccc(O)cc1  Staphylococcus aureus                 MIC             2.5
3  O=C(Nc1ccc(Cl)c(C(=O)c2ccc(Cl)cc2)c1)c1cc(Cl)ccc1O  Staphylococcus aureus                 MIC               4
4   O=C(Nc1nnc(-c2ccc(Br)cc2)o1)c1cccc(F)c1  Staphylococcus aureus                 MIC             0.5
5   O=C(Nc1nnc(-c2ccc(F)cc2)o1)c1cccc(Br)c1  Staphylococcus aureus                 MIC             0.5
6  Cc1ccc(C)c(C(=O)c2cc(NC(=O)c3cc(Br)cc(Br)c3O)ccc2Oc2ccc(Cl)cc2)c1  Staphylococcus aureus                 MIC              32

Provide MIC for all items below, preserving their order.
1. CCc1c(C)nc(N2NC(C)=CC2NC(=O)c2ccccc2I)nc1O (stereo not given)
2. CCC1Sc2ccc(S(=O)(=O)Nc3ccc(C)cc3C)cc2NC1=O (stereo not given)
3. O=C(c1ccc(Cl)cc1)c1ccc(NC(=O)c2cc(Br)cc(Br)c2O)cc1Cl
4. O=C(Nc1cc(Cl)cc(C(=O)c2ccc(Cl)cc2)c1Cl)c1cc(Cl)cc(Br)c1O
5. NC(=O)c1ccsc1NC(=O)c1ccc([N+](=O)[O-])o1
6. Cc1c(CC(=O)N2CCC[C@H]2C(=O)O)c(=O)oc2c(C)c3occ(-c4ccc(F)cc4)c3cc12
7. O=C(Nc1nnc(-c2ccccc2Cl)o1)c1nc2ccccc2s1
8. O=C1c2cc([N+](=O)[O-])cc3cc([N+](=O)[O-])cc(c23)C(=O)N1c1cccc2ccccc12

A)
1. 1
2. 8
3. 4
4. 0.5
5. 0.25
6. 1.25
7. 2
8. 2.5

---

experiment.notes: Inhibition of transglycosylase assessed as inhibition of NBD- labelled lipid II polymerization
Field: IC90. Provide a value for each of the compounds that follow.
Numbers only, in µM.

Provide IC90 for all items below, preserving their order.
1. O=C(Nc1cc(Cl)ccc1Oc1ccc(Cl)c2ccccc12)c1cc(I)cc(I)c1O
2. O=C(Nc1cc(Cl)ccc1Oc1ccc(Cl)c2ccccc12)c1cc(Cl)cc(Br)c1O
3. O=C(Nc1ccc(Cl)c(C(=O)c2ccc(Cl)cc2)c1)c1cc(Cl)ccc1O

A)
[50, 100, 100]

---

Field: MIC90. Provide a value for each of the compounds that follow.
Test system: Staphylococcus aureus
experiment.notes: Antimicrobial activity against oxacillin- and methicillin-resistant Staphylococcus aureus isolate Sa-OXA-R2 after 18 to 24 hrs by alamar blue assay
Format: functional
One number for each entry, in µM.

molecule	test.target	unit.of.measurement	readout.number
Cc1ccc(C(C)C)c(Oc2cc(Cl)ccc2NC(=O)c2cc(Br)cc(Br)c2O)c1	Staphylococcus aureus	µM	0.45
O=C(c1ccc(Cl)cc1)c1ccc(Oc2ccc(Cl)cc2)c(NC(=O)c2cc(I)cc(I)c2O)c1	Staphylococcus aureus	µM	11
C=C(C/C=C(\C)CCC=C(C)C)CCC(C)(C)/C=C/CC/C(C)=C/CO[C@@H](COP(=O)(O)O[C@H]1O[C@H](C(N)=O)[C@@](C)(O)[C@H](OC(N)=O)[C@H]1O[C@@H]1O[C@H](CO[C@@H]2O[C@H](CO)[C@@H](O)[C@H](O)[C@H]2O)[C@@H](O[C@@H]2O[C@H](C)[C@@H](O[C@@H]3O[C@H](C(=O)NC4=C(O)CCC4=O)[C@H](O)[C@H](O)[C@H]3O)[C@H](O)[C@H]2NC(C)=O)[C@H](O)[C@H]1NC(C)=O)C(=O)O	Staphylococcus aureus	µM	33
CCc1ccc2oc(-c3cccc(NC(=O)c4ccc([N+](=O)[O-])o4)c3)nc2c1	Staphylococcus aureus	µM	1

Let's switch to this compound now.
Observed MIC90, Staphylococcus aureus, `Cc1ccc(C(C)C)c(Oc2ccccc2NC(=O)c2cc(I)cc(I)c2O)c1` : 13
